TGI reference
system: U251 CNS; experiment: NCI tumour cell line growth inhibition, 48 h
The reply should contain only the number, in µM.

- Compound: "CCN(CC)CCCC(C)Nc1cnc(C(=O)Nc2cccc3ccc(OC)nc23)cn1 (stereo not given)"
  Measured Quantity: "TGI"
  Observed: 3.52
- Compound: "C/C(=C1/CCC/C(=C(/C)c2ccccc2)C1=O)c1ccccc1"
  Measured Quantity: "TGI"
  Observed: 74.2

Next compound, TGI to be filled in.
Given the compound N#C/C(=C\c1cc2ccccc2c2ccccc12)c1ccccc1 , what is its reported TGI?
36.8

* * *

log10 of TGI reference
system: MDA-MB-435; experiment: NCI tumour cell line growth inhibition, 48 h
Heads up: the numbers are on a log10 scale; they represent TGI in µM.

- Compound: "CCN(CC)CC(=O)O[C@]1(CC)C(=O)OCc2c1cc1n(c2=O)Cc2cc3ccccc3nc2-1"
  Observed: -0.06
- Compound: "COc1ccc(C2=Nn3c(nnc(Cc4ccc(Cl)cc4)c3=O)SC2)cc1"
  Observed: 1.52
- Compound: "CCOC(=O)c1c(C)nc2c(c1N)/C(=C/c1ccc(OC)cc1)C(=O)N2Cc1ccc(F)cc1"
  Observed: -0.33
- Compound: "C=C[C@H]1C[C@@H]2C[C@@H]3[C@H]4C/C=C\\C(=O)NCCCC5NC(=O)C(=C(O)/C=C/[C@@H]4CC(=O)[C@H]3[C@@H]2[C@H]1C)C5=O (stereo partly drawn)"
  Observed: -0.39
- Compound: "CCC(=O)c1c(C(F)(F)F)n([O-])c2ccc(C)cc2[n+]1=O"
  Observed: 1.61
- Compound: "N#Cc1cccc(NC(=O)c2cc(-c3ccc(F)cc3F)ccc2O)c1"
  Observed: 0.97

log10 of TGI of NC(CCC(=O)O)C(=O)N1CCN(c2nc(N3CCCC3)c3nc(Cl)c(NCc4ccccc4)nc3n2)CC1 (stereo not drawn) on MDA-MB-435?
1.42

log10 of TGI of NC(N)=N/N=C/c1c(-c2cccc([N+](=O)[O-])c2)nc2n1CCS2 on MDA-MB-435?
1.74

log10 of TGI of COc1ccc(-c2nnc(COc3ccc(NC(=O)Nc4ccc(Cl)c(C(F)(F)F)c4)cc3F)o2)cc1 on MDA-MB-435?
1.57

* * *

tested on: HCT-15 colon; assay: NCI tumour cell line growth inhibition, 48 h
TGI reference

Worked set:
- Compound: "Cc1ccc2[nH]c(C(=O)NN3C(=O)C(C)SC34CCCC(C)C4)c(-c3ccccc3)c2c1 (centres undefined)"
  Assay System: "HCT-15 colon"
  TGI: "> 100 µM"
- Compound: "COc1cc2c(cc1OC)CCc1cc(OC)c(OC)cc1CC2"
  Assay System: "HCT-15 colon"
  TGI: "> 100 µM"
- Compound: "CC1(C)CC(=O)C(/C=N/c2nc(-c3ccccc3)cs2)=C(O)C1"
  Assay System: "HCT-15 colon"
  TGI: "63.7 µM"
- Compound: "Cc1cc(C)n(C2OC(CO)C(O)C(O)C2O)c(=S)c1C#N (centres undefined)"
  Assay System: "HCT-15 colon"
  TGI: "> 100 µM"
- Compound: "O=C1O/C(=C(/Cl)c2cccc3ccccc23)c2ccccc21"
  Assay System: "HCT-15 colon"
  TGI: "> 100 µM"
- Compound: "CCOP(=O)(CN1CCNCCNCC1)OCC"
  Assay System: "HCT-15 colon"
  TGI: "> 100 µM"

Given the compound COc1ncc(-c2ccc3ncnc(Nc4cccc(Cl)c4)c3c2)cc1NS(=O)(=O)CCN1CCOCC1 , what is its reported TGI?
> 100 µM

Given the compound CC(C)(C)c1ccc(O)c(CN(Cc2cc(C(C)(C)C)ccc2O)c2ccccc2)c1 , what is its reported TGI?
35.8 µM

Given the compound COC1=CC2(C=CC1=O)c1cc(OC)c(OC)cc1CCN2C(=O)c1ccccc1 (centres undefined) , what is its reported TGI?
> 100 µM
